assay: distribution coefficient Log P of drug substance; type: physicochemical
QUANTITY: logP
# answer = number (no unit)

## Task # logP lookup, item COC(=O)N1CC[C@@H]2[C@H]1CCC[C@@]2(O)C#Cc1cccc(C)c1 [AFQ056]
## Result 4.7

----------
test: half life of AFQ056 used to set the wash out period; conditions: human, in vivo, oral; 50 mg and 100 mg doses
QUANTITY: half-life

## Task # half-life lookup, item `COC(=O)N1CC[C@@H]2[C@H]1CCC[C@@]2(O)C#Cc1cccc(C)c1`
## Result 7 to 17 h

----------
assay: solubility in water and in ethanol at room temperature; type: physicochemical; conditions: water, room temperature; read-out: Solubility in water
QUANTITY: solubility

## Task # solubility lookup, item COC(=O)N1CC[C@@H]2[C@H]1CCC[C@@]2(O)C#Cc1cccc(C)c1 [AFQ056]
## Result ~20 µg/mL

Origin of measurements: patent US12653807B2
